Entries annotated with measured pIC50
# Test system: MM074^VemuR
# Measurement Notes: Cell viability assay (PrestoBlue), 72h
# Condition Notes: Homo sapiens
Conceptually, pIC50 converts a concentration in mol/L into minus its log10.

Worked set:
COc1ccc2[nH]c3c(c2c1)CCN[C@]31CS[C@@H]2c3c(OC(C)=O)c(C)c4c(c3[C@H](COC1=O)N1[C@@H]2[C@H]2c3c(cc(C)c(OC)c3O)C[C@@H]([C@@H]1O)N2C)OCO4; 8.87
COc1c(C)cc2c(c1O)[C@@H]1[C@@H]3[C@@H]4SC[C@]5(N[C@H](CO)Cc6c5oc5ccccc65)C(=O)OC[C@@H](c5c6c(c(C)c(OC(C)=O)c54)OCO6)N3[C@@H](O)[C@H](C2)N1C; 8.51
CC(=O)Nc1cccc(-n2c(=O)n(C3CC3)c(=O)c3c(Nc4ccc(I)cc4F)n(C)c(=O)c(C)c32)c1; 8.33

Turning now to a further record.
Reported pIC50 of COc1c(C)cc2c(c1O)[C@@H]1[C@@H]3[C@@H]4SC[C@]5(N[C@H](CO)Cc6c5[nH]c5ccccc65)C(=O)OC[C@@H](c5c6c(c(C)c(OC(C)=O)c54)OCO6)N3[C@@H](O)[C@H](C2)N1C : 8.79

From: patent EP4563149A1
